Measured LD50 at 504 h of individual entries
- Method: in vivo
- Experimental Parameters: mouse, po, DDY mice, single dose, p.o., suspended in 0.5% carboxymethyl cellulose, day 21, read-out: LD50 p.o.

{"Compound": "C=CCOc1ccc(/C=C/C(=O)c2c(OC)cc(OC)cc2OC(=O)CC)cc1", "LD50 at 504 h": "> 1000 mg/kg"}
{"Compound": "CCC(=O)Oc1cc(OC)cc(OC)c1C(=O)C=Cc1cccn1C", "LD50 at 504 h": "> 5000 mg/kg"}
{"Compound": "CCOc1cc(OC)cc(O)c1C(=O)/C=C/c1ccc(OC)cc1", "LD50 at 504 h": "> 1000 mg/kg"}
{"Compound": "COc1ccc(/C=C/C(=O)c2c(OC)cc(OC)cc2OC(=O)C(C)(C)C)cc1", "LD50 at 504 h": "> 5000 mg/kg"}
{"Compound": "COc1cc(/C=C/C(=O)c2c(O)cc(OC)cc2OC)cc(OC)c1", "LD50 at 504 h": "> 5000 mg/kg"}
{"Compound": "COc1cc(O)c(C(=O)/C=C/c2ccc(OC)c(OC)c2)c(OC)c1", "LD50 at 504 h": "> 500 mg/kg"}
{"Compound": "COc1ccc(/C=C/C(=O)c2c(O)cc(OC)cc2OC(C)C)cc1", "LD50 at 504 h": "> 2700 mg/kg"}
{"Compound": "COc1cc(O)c(C(=O)C=Cc2cccs2)c(OC)c1", "LD50 at 504 h": "> 5000 mg/kg"}
{"Compound": "COc1cc(O)c(C(=O)/C=C/c2ccc(C)cc2)c(OC)c1", "LD50 at 504 h": "> 5000 mg/kg"}
{"Compound": "CCOc1ccc(/C=C/C(=O)c2c(O)cc(OC)cc2OCC)cc1", "LD50 at 504 h": "> 5000 mg/kg"}
{"Compound": "COc1ccc(/C=C/C(=O)c2ccc(OC)cc2O)cc1 [2'-hydroxy-4,4'-dimethoxychalcone]", "LD50 at 504 h": "> 2500 mg/kg"}
{"Compound": "CCOc1cc(O)c(C(=O)C=Cc2ccc(C)o2)c(OCC)c1", "LD50 at 504 h": "> 1000 mg/kg"}
{"Compound": "COc1cc(O)c(C(=O)/C=C/c2ccc(SC)cc2)c(OC)c1", "LD50 at 504 h": "> 5000 mg/kg"}
{"Compound": "CCC(=O)Oc1cc(OC)cc(OC)c1C(=O)/C=C/c1ccc(C)cc1", "LD50 at 504 h": "> 5000 mg/kg"}
{"Compound": "COc1cc(O)c(C(=O)/C=C/c2ccc(OC)c(O)c2)c(OC)c1", "LD50 at 504 h": "> 1000 mg/kg"}
{"Compound": "C=CCOc1ccc(/C=C/C(=O)c2c(O)cc(OC)cc2OC)cc1", "LD50 at 504 h": "> 1000 mg/kg"}
{"Compound": "COc1cc(O)c(C(=O)/C=C/c2ccc(N(C)C)cc2)c(OC)c1", "LD50 at 504 h": "> 5000 mg/kg"}
{"Compound": "CCCOc1cc(OC)cc(OC(=O)CC)c1C(=O)/C=C/c1ccc(OC)cc1", "LD50 at 504 h": "> 1000 mg/kg"}
{"Compound": "CCC(=O)Oc1cc(OC)cc(OC)c1C(=O)C=Cc1cccs1", "LD50 at 504 h": "> 5000 mg/kg"}
{"Compound": "COc1cccc(/C=C/C(=O)c2c(O)cc(OC)cc2OC)c1 [2'-hydroxy-3,4',6'-trimethoxychalcone]", "LD50 at 504 h": "> 1000 mg/kg"}
{"Compound": "COc1ccc(/C=C/C(=O)c2c(OC)cc(OC)cc2OC(=O)c2cnccn2)cc1", "LD50 at 504 h": "> 4000 mg/kg"}
{"Compound": "CCC(=O)Oc1cc(OC)cc(OC)c1C(=O)/C=C/c1ccccc1", "LD50 at 504 h": "> 5000 mg/kg"}
{"Compound": "CCC(=O)Oc1cc(OC)cc(OC)c1C(=O)C=Cc1ccc2c(c1)OCO2", "LD50 at 504 h": "> 1000 mg/kg"}
{"Compound": "COc1cc(O)c(C(=O)/C=C/c2cccc(OC)c2O)c(OC)c1", "LD50 at 504 h": "> 1000 mg/kg"}
{"Compound": "COc1ccc(/C=C/C(=O)c2c(OC)cc(OC)cc2OC(=O)CCCC(=O)O)cc1", "LD50 at 504 h": "> 2000 mg/kg"}
{"Compound": "CCOc1cc(O)c(C(=O)/C=C/c2ccc(OC)cc2)c(OCC)c1", "LD50 at 504 h": "> 2000 mg/kg"}

Cited source for all entries: patent US4605674A
